Below: a set of entries, each annotated with reported IC50 or EC50 (antagonist or agonist mode, not stated per compound).
Biological target: Glucocorticoid Receptor (Homo sapiens, UniProt P04150)
Construct: expressed in transfected cells
Sequence (P04150 524-758 limits assumed): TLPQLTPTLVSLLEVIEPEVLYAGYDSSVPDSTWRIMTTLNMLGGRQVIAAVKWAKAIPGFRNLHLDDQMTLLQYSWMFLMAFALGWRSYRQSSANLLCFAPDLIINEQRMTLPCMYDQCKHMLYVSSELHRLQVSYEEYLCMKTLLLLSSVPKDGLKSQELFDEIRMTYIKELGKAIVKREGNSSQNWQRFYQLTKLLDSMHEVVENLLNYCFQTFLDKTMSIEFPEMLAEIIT
Assay: Agonistic mode of action on the glucocorticoid receptor (CHO-Gal4/GR luciferase reporter cell line)
Format: cell-based
Conditions: CHO-Gal4/GR luciferase reporter cells; observed in the agonistic assay or the antagonistic assay (mode not given); read-out: IC50 or EC50 range
From the text: Potential selective glucocorticoid receptor modulators of this intervention can be tested for modulation of the activity of the glucocorticoid receptor using cell-based assays. These assays involve a Chinese hamster ovary (CHO) cell line which contains fragments of the glucocorticoid receptor as well as fusion proteins. […] After cell lysis the luminescence that is produced by luciferase after addition of the substrate is detected and EC50 or IC50 values can be calculated. […]

{"molecule": "Cc1c(-c2cc(F)cc3c2cnn3S(C)(=O)=O)cc(F)c2c1-n1c(C)nnc1C(C)(C)N2 [Example 340]", "value_measured": "100 to 1000 nM"}

Q: Quick check: IC50 or EC50 (antagonist or agonist mode, not stated per compound) of COc1c(-c2cccc3c2ccn3S(C)(=O)=O)cc(Cl)c2c1-n1c(C)nnc1C(C)(C)N2 [Example 482] ?
A: 100 to 1000 nM

Q: I am curious: what IC50 or EC50 (antagonist or agonist mode, not stated per compound) value has been reported for Cc1nnc2n1-c1c(c(F)c(F)c(-c3cc(F)cc4[nH]ccc34)c1C(F)(F)F)NC2(C)C [Example 516] ?
A: < 100 nM

Q: Please report the recorded IC50 or EC50 (antagonist or agonist mode, not stated per compound) for Cc1c(-c2cc(F)cc3c2ccn3S(C)(=O)=O)c(F)c(F)c2c1-n1c(C)nnc1C(C)(C)N2 [Example 447] .
A: < 100 nM

###

biological target: Glucocorticoid Receptor (Homo sapiens, UniProt P04150); construct: expressed in transfected cells; experiment: Agonistic mode of action on the glucocorticoid receptor (CHO-Gal4/GR luciferase reporter cell line); format: cell-based; details: CHO-Gal4/GR luciferase reporter cells; observed in the agonistic assay or the antagonistic assay (mode not given); read-out: IC50 or EC50 range
Reported IC50 or EC50 (antagonist or agonist mode, not stated per compound) values for the following molecules.

Recorded IC50 or EC50 (antagonist or agonist mode, not stated per compound), per entry:
{"query_smiles": "Cc1c(-c2cccc3c2ccn3C)cc(F)c2c1-n1c(C)nnc1C(C)(C)N2", "value_measured": "< 100 nM"}
{"query_smiles": "Cc1nnc2n1-c1c(CO)c(-c3cc(F)cc4c3ccn4S(C)(=O)=O)cc(F)c1NC2(C)C", "value_measured": "< 100 nM"}
{"query_smiles": "Cc1nnc2n1-c1c(c(F)c(F)c(-c3cccc4c3ccn4S(C)(=O)=O)c1C(F)(F)F)NC2(C)C", "value_measured": "100 to 1000 nM"}
{"query_smiles": "COc1cc(-c2c(C)c3c(c(F)c2F)NC(C)(C)c2nnc(C)n2-3)c2ccn(S(C)(=O)=O)c2c1", "value_measured": "100 to 1000 nM"}
{"query_smiles": "COc1c(-c2cc(F)cc3c2ccn3S(C)(=O)=O)cc(Cl)c2c1-n1c(C)nnc1C(C)(C)N2", "value_measured": "< 100 nM"}

Q: Reported IC50 or EC50 (antagonist or agonist mode, not stated per compound), molecule `Cc1c(-c2cccc3[nH]ccc23)c(F)c(F)c2c1-n1c(C)nnc1C(C)(C)N2` : ____
A: < 100 nM

Q: I'd like to know its IC50 or EC50 (antagonist or agonist mode, not stated per compound). The molecule in question is `CCc1c(-c2cccc3c2ccn3S(C)(=O)=O)cc(F)c2c1-n1c(C)nnc1C(C)(C)N2`
A: 100 to 1000 nM

Q: Quick one: IC50 or EC50 (antagonist or agonist mode, not stated per compound) for `Cc1c(-c2cccc3c2ccn3S(C)(=O)=O)cc(F)c2c1-n1c(C3CC3)nnc1C(C)(C)N2` ?
A: 1000 to 15000 nM

Q: I am curious: what IC50 or EC50 (antagonist or agonist mode, not stated per compound) value has been reported for `Cc1c(-c2cc(F)cc3c2ccn3CCO)cc(F)c2c1-n1c(C3CC3)nnc1C(C)(C)N2` ?
A: 1000 to 15000 nM

Q: Name the recorded IC50 or EC50 (antagonist or agonist mode, not stated per compound) for `Cc1c(-c2cccc3c2ccn3S(C)(=O)=O)c(F)c(F)c2c1-n1c(C)nnc1C(C)(C)N2` .
A: < 100 nM

Q: Look at this molecule and give its reported IC50 or EC50 (antagonist or agonist mode, not stated per compound). `Cc1c[nH]c2c(-c3cc(F)c4c(c3C(F)F)-n3c(C)nnc3C(C)(C)N4)cc(F)cc12`
A: < 100 nM

Q: For `COc1c(-c2cc(F)cc3c(C)c[nH]c23)cc(F)c2c1-n1c(C3CC3)nnc1C(C)(C)N2` , what is its reported IC50 or EC50 (antagonist or agonist mode, not stated per compound)?
A: 100 to 1000 nM

Q: Recorded IC50 or EC50 (antagonist or agonist mode, not stated per compound) of `COc1c(-c2cc(C(F)(F)F)cc3[nH]ccc23)cc(F)c2c1-n1c(C)nnc1C(C)(C)N2` , please.
A: 100 to 1000 nM

Q: Can you share its IC50 or EC50 (antagonist or agonist mode, not stated per compound)? I mean this molecule: `COc1c(-c2cccc3c2ccn3S(C)(=O)=O)c(F)c(F)c2c1-n1c(C)nnc1C(C)(C)N2`
A: 100 to 1000 nM

Q: Looking for the measured IC50 or EC50 (antagonist or agonist mode, not stated per compound) of `COc1c(-c2cc(F)cc3c2ccn3CCO)cc(F)c2c1-n1c(C3CC3)nnc1C(C)(C)N2` , can you help?
A: 1000 to 15000 nM

###

target: Glucocorticoid Receptor (Homo sapiens); construct: expressed in transfected cells; test: Agonistic mode of action on the glucocorticoid receptor (CHO-Gal4/GR luciferase reporter cell line); format: cell-based; conditions: CHO-Gal4/GR luciferase reporter cells; observed in the agonistic assay or the antagonistic assay (mode not given); read-out: IC50 or EC50 range
quantity_measured: IC50 or EC50 (antagonist or agonist mode, not stated per compound)

{"query_smiles": "CCS(=O)(=O)n1ccc2c(-c3cc(F)c4c(c3C)-n3c(C)nnc3C(C)(C)N4)cccc21", "value_measured": "< 0.1 µM"}
{"query_smiles": "COc1c(-c2cc(F)cc3c2cnn3S(C)(=O)=O)c(F)c(F)c2c1-n1c(C)nnc1C(C)(C)N2", "value_measured": "0.1 to 1 µM"}
{"query_smiles": "Cc1c(-c2cc(F)cc3c2ccn3S(C)(=O)=O)c(F)c(Cl)c2c1-n1c(C)nnc1C(C)(C)N2", "value_measured": "1 to 15 µM"}
{"query_smiles": "CNc1c(-c2cc(F)cc3c(C)c[nH]c23)cc(F)c2c1-n1c(C)nnc1C(C)(C)N2", "value_measured": "< 0.1 µM"}

Q: Param item = `Cc1n[nH]c2c(-c3cc(F)c4c(c3C(F)F)-n3c(C)nnc3C(C)(C)N4)cccc12` ; retrieve measured IC50 or EC50 (antagonist or agonist mode, not stated per compound).
A: 0.1 to 1 µM

Q: Can you look up the measured IC50 or EC50 (antagonist or agonist mode, not stated per compound) of `Cc1nnc2n1-c1c(c(F)cc(-c3cc(F)cc4c3cnn4S(C)(=O)=O)c1C1CC1)NC2(C)C` for me?
A: 0.1 to 1 µM

Q: Return reported IC50 or EC50 (antagonist or agonist mode, not stated per compound); argument: `Cc1c(-c2cccc3c(C)c[nH]c23)c(F)c(F)c2c1-n1c(C)nnc1C(C)(C)N2`
A: 0.1 to 1 µM

Q: I would be grateful if you could share the reported IC50 or EC50 (antagonist or agonist mode, not stated per compound) for `Cc1c(-c2cccc3c2cnn3S(C)(=O)=O)c(F)c(Cl)c2c1-n1c(C)nnc1C(C)(C)N2` .
A: 0.1 to 1 µM

Q: Record request: IC50 or EC50 (antagonist or agonist mode, not stated per compound) value, item `COc1c(-c2cc(C)cc3c2ccn3S(C)(=O)=O)cc(F)c2c1-n1c(C)nnc1C(C)(C)N2`
A: 0.1 to 1 µM

Q: Value lookup for IC50 or EC50 (antagonist or agonist mode, not stated per compound); key = `CNc1c(-c2cc(F)cc3c2ccn3S(C)(=O)=O)cc(F)c2c1-n1c(C)nnc1C(C)(C)N2`
A: 0.1 to 1 µM

Q: State the recorded IC50 or EC50 (antagonist or agonist mode, not stated per compound) for this entry: `Cc1c(-c2cccc3c2cnn3S(C)(=O)=O)cc(F)c2c1-n1c(C)nnc1C(C)(C)N2`
A: 1 to 15 µM

Q: Could you share which IC50 or EC50 (antagonist or agonist mode, not stated per compound) value was measured for `COc1c(-c2cc(F)cc3[nH]ccc23)cc(Cl)c2c1-n1c(C)nnc1C(C)(C)N2` ?
A: < 0.1 µM

Q: // lookup IC50 or EC50 (antagonist or agonist mode, not stated per compound) for `Cc1c(-c2cccc3c2ccn3S(=O)(=O)CC2CC2)cc(F)c2c1-n1c(C)nnc1C(C)(C)N2`
A: < 0.1 µM

Q: Would you kindly share the measured IC50 or EC50 (antagonist or agonist mode, not stated per compound) for `Cc1c(-c2cccc3c2cnn3S(C)(=O)=O)c(Cl)c(F)c2c1-n1c(C)nnc1C(C)(C)N2` ?
A: 0.1 to 1 µM

Q: What value of IC50 or EC50 (antagonist or agonist mode, not stated per compound) has been recorded for this entry: `Cc1c(-c2cc(F)cc3[nH]ncc23)cc(F)c2c1-n1c(C)nnc1C(C)(C)N2`
A: 0.1 to 1 µM

Q: Requested read-out: IC50 or EC50 (antagonist or agonist mode, not stated per compound). Entry: `Cc1c(-c2ccc(F)c3[nH]ccc23)cc(F)c2c1-n1c(C)nnc1C(C)(C)N2`
A: 0.1 to 1 µM

These measurements were taken from patent US11981677B2.
